# ASSAY DETAILS: total protein half-life in vivo (active degradation + dilution); higher = more stable protein
# SETUP CONDITIONS: wild type E. coli NCM3722; growth: C-lim chemostat; doubling time 12 h

| CONSTRUCT SEQUENCE | UNIT INFO | total protein half-life in vivo |
| --- | --- | --- |
| MKKLQIAVGIIRNENNEIFITRRAADAHMANKLEFPGGKIEMGETPEQAVVRELQEEVGITPQHFSLFEKLEYEFPDRHITLWFWLVERWEGEPWGKEGQPGEWMSLVGLNADDFPPANEPVIAKLKRL | h | 9.03 |
| MTEQQISRTQAWLESLRPKTLPLAFAAIIVGTALAWWQGHFDPLVALLALITAGLLQILSNLANDYGDAVKGSDKPDRIGPLRGMQKGVITQQEMKRALIITVVLICLSGLALVAVACHTLADFVGFLILGGLSIIAAITYTVGNRPYGYIGLGDISVLVFFGWLSVMGSWYLQAHTLIPALILPATACGLLATAVLNINNLRDINSDRENGKNTLVVRLGEVNARRYHACLLMGSLVCLALFNLFSLHSLWGWLFLLAAPLLVKQARYVMREMDPVAMRPMLERTVKGALLTNLLFVLGIFLSQWAA | h | 12.6 |
| MITIRDVARQAGVSVATVSRVLNNSTLVSADTREAVMKAVSELDYRPNANAQALATQVSDTIGVVVMDVSDAFFGALVKAVDLVAQQHQKYVLIGNSYHEAEKERHAIEVLIRQRCNALIVHSKALSDDELAQFMDNIPGMVLINRVVPGYAHRCVCLDNLSGARMATRMLLNNGHQRIGYLSSSHGIEDDAMRKAGWMSALKEQDIIPPESWIGAGTPDMPGGEAAMVELLGRNLQLTAVFAYNDNMAAGALTALKDNGIAIPLHLSIIGFDDIPIARYTDPQLTTVRYPIASMAKLATELALQGAAGNIDPRASHCFMPTLVRRHSVATRQNAAAITNSTNQAM | h | 8.13 |

src = the supplement of paper PMC11246515
